B1: VH:VL chains; a variant is named by its letters at X, in order (parent)
chain 1: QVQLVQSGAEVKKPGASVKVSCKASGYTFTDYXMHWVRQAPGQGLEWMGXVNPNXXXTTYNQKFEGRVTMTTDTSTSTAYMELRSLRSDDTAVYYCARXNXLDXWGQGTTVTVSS
chain 2: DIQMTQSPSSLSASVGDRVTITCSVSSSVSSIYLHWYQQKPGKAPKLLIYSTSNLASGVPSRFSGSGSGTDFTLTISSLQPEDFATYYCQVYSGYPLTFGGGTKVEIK

- Variants of: B1
- test: yeast display scFab, FACS + sequencing
- reported conditions: with MET
This is one part of the list. How many sequences the whole screen found active is unknown.
assay endpoint: antigen binding call

These solved cases illustrate the format of a correct answer.
In [3]: df
Out[3]:
   mutation_name        assay_endpoint  reported_result
0       YKGKSAWD  antigen binding call       no binding
1       VTRGADGV  antigen binding call       no binding
2       YKARGAWS  antigen binding call            binds
3       YRARGAGS  antigen binding call            binds
4       SEEEGSAA  antigen binding call       no binding
5       YRARGAWS  antigen binding call            binds
6       VETGNSGA  antigen binding call       no binding
7       DTGGGDAA  antigen binding call       no binding

Prompt line: Reported antigen binding call for `VTTKSDGA` : what is it?
Response line: no binding

Prompt line: Same thing, different variant: `DEGGTDVA`
Response line: no binding

Prompt line: Then what about the variant `DAGEGFVA` ?
Response line: no binding

Measured values drawn from the emibetuzumab library of Makowski et al. (2022) for this set.
